Tested on: NCI H292
Test summary: Cytotoxicity assay (Version 2), automated, AC50
Assay type: cell-based, human
Experimental parameters: NCI H292 cells, no elastase, Version 2, activity concentration at -50%, 4 parameter Hill-fit
Counter-ions that a name gives are not always drawn.
AC50: recorded values
Readout name: AC50

Molecule: CCCNC(=O)Cc1cccc(S(=O)(=O)Nc2cccc([C@@H](CC(=O)O)NC(=O)Nc3ccc(NC(=O)NCCOCCOCCOCCC(=O)NCCNC(=O)[C@H](CCC(=O)NCCNC(=O)CCOCCOCCOCCNC(=O)Nc4ccc(NC(=O)N[C@H](CC(=O)O)c5cccc(NS(=O)(=O)c6cccc(NC(=O)NCCC)c6)c5)cc4)NC(=O)CCCC(=O)NCCN(C)CCN(C)CCN(C)CC(=O)NCC(=O)N4CCC[C@H]4C(=O)N[C@H](C(=O)O[C@]4(CC)C(=O)OCc5c4cc4n(c5=O)Cc5c-4nc4ccccc4c5CC)C(C)C)cc3)c2)c1
Target of assay: NCI H292
Readout name: AC50
Result: ≤ 10 nM
--
Molecule: CCCNC(=O)Nc1cccc(S(=O)(=O)Nc2cccc([C@@H](CC(=O)O)NC(=O)Nc3ccc(NC(=O)NCCOCCOCCOCCC(=O)N[C@@H](CC(=O)O)C(=O)N4CCC[C@H]4C(=O)N[C@@H](C)C(=O)O[C@]4(CC)C(=O)OCc5c4cc4n(c5=O)Cc5c-4nc4ccccc4c5CC)cc3)c2)c1
Target of assay: NCI H292
Readout name: AC50
Result: 11 to 100 nM
--
Molecule: CCCNC(=O)Nc1cccc(S(=O)(=O)Nc2cccc([C@@H](CC(=O)O)NC(=O)Nc3ccc(NC(=O)NCCOCCOCCOCCC(=O)N[C@@H](CC(=O)OCCC[N+](C)(C)C)C(=O)N4CCC[C@H]4C(=O)N[C@H](C(=O)O[C@]4(CC)C(=O)OCc5c4cc4n(c5=O)Cc5c-4nc4ccccc4c5CC)C(C)C)cc3)c2)c1 [Compound C5, trifluoroacetate]
Target of assay: NCI H292
Readout name: AC50
Result: 110 to 1000 nM
--
Molecule: CCCNC(=O)Nc1cccc(S(=O)(=O)Nc2cccc([C@@H](CC(=O)O)NC(=O)Nc3ccc(NC(=O)NCCOCCOCCOCCC(=O)NCCNC(=O)CC[C@H](NC(=O)CCCC(=O)NCCN(C)CCN(C)CCN(C)CC(=O)N[C@@H](CC(N)=O)C(=O)N4CCC[C@H]4C(=O)N[C@H](C(=O)O[C@]4(CC)C(=O)OCc5c4cc4n(c5=O)Cc5c-4nc4ccccc4c5CC)C(C)C)C(=O)NCCNC(=O)CCOCCOCCOCCNC(=O)Nc4ccc(NC(=O)N[C@H](CC(=O)O)c5cccc(NS(=O)(=O)c6cccc(NC(=O)NCCC)c6)c5)cc4)cc3)c2)c1
Target of assay: NCI H292
Readout name: AC50
Result: 110 to 1000 nM

* * *

System: NCI H292
Test summary: Cytotoxicity in vitro in the presence and absence of elastase (MTT assay)
Type: cell-based, human
Experimental parameters: NCI H292 cells, compound alone (no elastase), 72 h
pIC50: −log10 of the molar value.
Readout name: pIC50

Compound: CCCNC(=O)Nc1cccc(S(=O)(=O)Nc2cccc([C@@H](CC(=O)O)NC(=O)Nc3ccc(NC(=O)NCCOCCOCCOCCC(=O)N[C@@H](CC(=O)OCCCN(C)C)C(=O)N4CCC[C@H]4C(=O)N[C@H](C(=O)O[C@]4(CC)C(=O)OCc5c4cc4n(c5=O)Cc5c-4nc4ccccc4c5CC)C(C)C)cc3)c2)c1 [Compound C2]
Result: 7.00 to 8.00
//
Compound: CCCNC(=O)Nc1cccc(S(=O)(=O)Nc2cccc([C@@H](CC(=O)O)NC(=O)Nc3ccc(NC(=O)NCCOCCOCCOCCC(=O)N[C@@H](CC(=O)OCCCCN(C)C)C(=O)N4CCC[C@H]4C(=O)N[C@H](C(=O)O[C@]4(CC)C(=O)OCc5c4cc4n(c5=O)Cc5c-4nc4ccccc4c5CC)C(C)C)cc3)c2)c1 [Compound C6]
Result: 7.00 to 8.00
//
Compound: CCCNC(=O)Cc1cccc(S(=O)(=O)Nc2cccc([C@@H](CC(=O)O)NC(=O)Nc3ccc(NC(=O)NCCOCCOCCOCCC(=O)N[C@@H](CCCCNC(=O)CCOCCOCCOCCNC(=O)Nc4ccc(NC(=O)N[C@H](CC(=O)O)c5cccc(CS(=O)(=O)c6cccc(NC(=O)NCCC)c6)c5)cc4)C(=O)NCCN(C)CCN(C)CCN(C)CC(=O)N[C@@H](CC(N)=O)C(=O)N4CCC[C@H]4C(=O)N[C@H](C(=O)O[C@]4(CC)C(=O)OCc5c4cc4n(c5=O)Cc5c-4nc4ccccc4c5CC)C(C)C)cc3)c2)c1 [Compound A5]
Result: 8.00 to 8.96
//
Compound: CCCNC(=O)Nc1cccc(S(=O)(=O)Nc2cccc([C@@H](CC(=O)O)NC(=O)Nc3ccc(NC(=O)NCCN(C)CCN(C)CCN(C)CC(=O)N[C@@H](CC(N)=O)C(=O)N4CCC[C@H]4C(=O)N[C@H](C(=O)O[C@]4(CC)C(=O)OCc5c4cc4n(c5=O)Cc5c-4nc4ccccc4c5CC)C(C)C)cc3)c2)c1.Cl.Cl.Cl [Compound B4b]
Result: 7.00 to 8.00
//
Compound: CCCNC(=O)Nc1cccc(S(=O)(=O)Nc2cccc([C@@H](CC(=O)O)NC(=O)Nc3ccc(NC(=O)N(C)CCN(C)CCN(C)CC(=O)N[C@@H](CC(N)=O)C(=O)N4CCC[C@H]4C(=O)N[C@H](C(=O)O[C@]4(CC)C(=O)OCc5c4cc4n(c5=O)Cc5c-4nc4ccccc4c5CC)C(C)C)cc3)c2)c1 [Compound B1]
Result: 7.00 to 8.00
//
Compound: CCCNC(=O)Nc1cccc(S(=O)(=O)Nc2cccc([C@@H](CC(=O)OCCCCN)NC(=O)Nc3ccc(NC(=O)NCCOCCOCCOCCC(=O)N[C@@H](CC(=O)OCCCCN)C(=O)N4CCC[C@H]4C(=O)N[C@H](C(=O)O[C@]4(CC)C(=O)OCc5c4cc4n(c5=O)Cc5c-4nc4ccccc4c5CC)C(C)C)cc3)c2)c1 [Compound C7]
Result: 8.00 to 8.96

* * *

Test system: NCI H292
Test summary: Cytotoxicity in vitro in the presence and absence of elastase (MTT assay)
Type: cell-based, human
Experimental parameters: NCI H292 cells, with 10 nM elastase, 72 h
Readout name: IC50

Molecule: CCCNC(=O)Nc1cccc(S(=O)(=O)Nc2cccc([C@@H](CC(=O)OCCCCN)NC(=O)Nc3ccc(NC(=O)NCCOCCOCCOCCC(=O)N[C@@H](CC(=O)OCCCCN)C(=O)N4CCC[C@H]4C(=O)N[C@H](C(=O)O[C@]4(CC)C(=O)OCc5c4cc4n(c5=O)Cc5c-4nc4ccccc4c5CC)C(C)C)cc3)c2)c1
Readout name: IC50
Result: 0.01 to 0.1 nM
--
Molecule: CCCNC(=O)Nc1cccc(S(=O)(=O)Nc2cccc([C@@H](CC(=O)O)NC(=O)Nc3ccc(NC(=O)NCCOCCOCCOCCC(=O)N[C@@H](CC(=O)OCCCCN(C)C)C(=O)N4CCC[C@H]4C(=O)N[C@H](C(=O)O[C@]4(CC)C(=O)OCc5c4cc4n(c5=O)Cc5c-4nc4ccccc4c5CC)C(C)C)cc3)c2)c1 [Compound C3]
Readout name: IC50
Result: 0.1 to 1 nM
--
Molecule: CCCNC(=O)Nc1cccc(S(=O)(=O)Nc2cccc([C@@H](CC(=O)O)NC(=O)Nc3ccc(NC(=O)NCCC(=O)NCCCC[C@H](NC(=O)CCNC(=O)Nc4ccc(NC(=O)N[C@H](CC(=O)O)c5cccc(NS(=O)(=O)c6cccc(NC(=O)NCCC)c6)c5)cc4)C(=O)NCCOCCOCCOCCC(=O)N[C@@H](CC(=O)O)C(=O)N4CCC[C@H]4C(=O)N[C@H](C(=O)O[C@]4(CC)C(=O)OCc5c4cc4n(c5=O)Cc5c-4nc4ccccc4c5CC)C(C)C)cc3)c2)c1
Readout name: IC50
Result: 0.01 to 0.1 nM
--
Molecule: CCCNC(=O)Nc1cccc(S(=O)(=O)Nc2cccc([C@@H](CC(=O)O)NC(=O)Nc3ccc(NC(=O)NCCCC[C@H](NC(=O)Nc4ccc(NC(=O)N[C@H](CC(=O)O)c5cccc(NS(=O)(=O)c6cccc(NC(=O)NCCC)c6)c5)cc4)C(=O)NCCOCCOCCOCCC(=O)N[C@@H](CC(=O)O)C(=O)N4CCC[C@H]4C(=O)N[C@H](C(=O)O[C@]4(CC)C(=O)OCc5c4cc4n(c5=O)Cc5c-4nc4ccccc4c5CC)C(C)C)cc3)c2)c1
Readout name: IC50
Result: 0.1 to 1 nM
--
Molecule: CCCNC(=O)Nc1cccc(S(=O)(=O)Nc2cccc([C@H](CC(=O)O)NC(=O)Nc3ccc(NC(=O)NCCN(C)CCN(C)CCN(C)CC(=O)NCCN(C)CCN(C)CCN(C)CC(=O)N[C@@H](CC(N)=O)C(=O)N4CCC[C@H]4C(=O)N[C@H](C(=O)O[C@]4(CC)C(=O)OCc5c4cc4n(c5=O)Cc5c-4nc4ccccc4c5CC)C(C)C)cc3)c2)c1 [Compound D2]
Readout name: IC50
Result: 0.1 to 1 nM
--
Molecule: CCCNC(=O)Nc1cccc(S(=O)(=O)Nc2cccc([C@@H](CC(=O)O)NC(=O)Nc3ccc(NC(=O)N(C)CCN(C)CCN(C)CC(=O)N[C@@H](CC(N)=O)C(=O)N4CCC[C@H]4C(=O)N[C@H](C(=O)O[C@]4(CC)C(=O)OCc5c4cc4n(c5=O)Cc5c-4nc4ccccc4c5CC)C(C)C)cc3)c2)c1
Readout name: IC50
Result: 0.1 to 1 nM
